Test Summary: EMT-state selective cytotoxicity in co-culture – imaging, PC-3E GFP, TEM4-18 mCherry, primary screen (AID 1345086);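 also: cells exposed to compound for 72 h before imaging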
Condition Context: PC-3E GFP / TEM4-18 mCherry co-culture, imaging cell counts; measured here: mesenchymal TEM4-18 mCherry cell survival; at 1 µM

Compound: NNc1nncc2ccccc12
normalised cell number: 1.26
//
Compound: O=C(O)P(=O)(O)O
normalised cell number: 0.99
//
Compound: C[n+]1ccccc1/C=N/O
normalised cell number: 1.16
//
Compound: CC1CCN(CCCC(=O)c2ccc(F)cc2)CC1
normalised cell number: 0.88
//
Compound: CN(C)/N=N/c1nc[nH]c1C(N)=O
normalised cell number: 1.04
//
Compound: Nc1ccc(C(=O)O)cc1
normalised cell number: 1.02
//
Compound: Nc1ccc(S(=O)(=O)NC(=O)c2ccccc2)cc1
normalised cell number: 1.46
//
Compound: O=NN(CCCl)C(=O)NCCCl
normalised cell number: 1.2
//
Compound: NS(=O)(=O)c1cc2c(cc1Cl)NC(C(Cl)Cl)NS2(=O)=O (stereo not given)
normalised cell number: 1.08
//
Compound: CCOC(=O)OC(C)OC1=C(C(=O)Nc2ccccn2)N(C)S(=O)(=O)c2ccccc21 (stereo not given)
normalised cell number: 1
//
Compound: CC(=O)Nc1cccc(O)c1
normalised cell number: 0.79
//
Compound: Cc1cn([C@H]2C=C[C@@H](CO)O2)c(=O)[nH]c1=O
normalised cell number: 1.09
//
Compound: CC(C)[C@H](N)C(=O)OCCOCn1cnc2c(=O)[nH]c(N)nc21
normalised cell number: 1.03
//
Compound: CCc1c2c(nc3ccc(OC(=O)N4CCC(N5CCCCC5)CC4)cc13)-c1cc3c(c(=O)n1C2)COC(=O)[C@]3(O)CC
normalised cell number: 0.34
//
Compound: O=C1OCCN1/N=C/c1ccc([N+](=O)[O-])o1
normalised cell number: 1.11
//
Compound: CN1CCC(=C2c3ccccc3C=Cc3ccccc32)CC1
normalised cell number: 0.97
//
Compound: CCN(CC)CCNC(=O)c1cc(S(C)(=O)=O)ccc1OC
normalised cell number: 1.16
//
Compound: CC(N)C12CC3CC(CC(C3)C1)C2 (stereo not given)
normalised cell number: 1.06
//
Compound: CCCCOc1cc(C(=O)NCCN(CC)CC)c2ccccc2n1
normalised cell number: 1.25
//
Compound: COc1cc(C(=O)OCCCN2CCCN(CCCOC(=O)c3cc(OC)c(OC)c(OC)c3)CC2)cc(OC)c1OC
normalised cell number: 0.92
//
Compound: CC(NCCC(c1ccccc1)c1ccccc1)c1ccccc1 (stereo not given)
normalised cell number: 0.86
//
Compound: CSc1ccc2c(c1)C(N1CCN(C)CC1)Cc1ccccc1S2 (stereo not given)
normalised cell number: 0.79
//
Compound: Cc1c[nH]c2ccccc12
normalised cell number: 0.85
//
Compound: C=CCSCC1Nc2cc(Cl)c(S(N)(=O)=O)cc2S(=O)(=O)N1 (stereo not given)
normalised cell number: 1.19
//
Compound: Cc1cc(N)c2ccccc2[n+]1CCCCCCCCCC[n+]1c(C)cc(N)c2ccccc21
normalised cell number: 1
//
Compound: Cc1[nH]c(C)c(Cl)c(=O)c1Cl
normalised cell number: 0.99
//
Compound: O=C1C(=O)c2ccccc2C(O)=C1C1CCC(c2ccc(Cl)cc2)CC1 (stereo not given)
normalised cell number: 0.98
//
Compound: CN1CCC(=C2c3ccccc3CCc3sccc32)CC1
normalised cell number: 0.94
//
Compound: CCCOc1ccc(C(=O)OCCN(CC)CC)cc1N
normalised cell number: 1.3
//
Compound: COc1cc2c(N3CCN(C(=O)Nc4ccc(OC(C)C)cc4)CC3)ncnc2cc1OCCCN1CCCCC1
normalised cell number: 1.23
//
Compound: COc1cc(OC)cc(OC)c1
normalised cell number: 1.09
//
Compound: Cc1c(NC(=O)c2cccnc2)c(=O)n(-c2ccccc2)n1C
normalised cell number: 1.09
//
Compound: COc1cc(NS(=O)(=O)c2ccc(N)cc2)nc(OC)n1
normalised cell number: 0.72
//
Compound: CC(Oc1c(Cl)cccc1Cl)C1=NCCN1 (stereo not given)
normalised cell number: 1.17
//
Compound: CC(c1cc2ccccc2s1)N(O)C(N)=O (stereo not given)
normalised cell number: 1.01
//
Compound: CC(=O)Nc1ccccc1
normalised cell number: 1.18
//
Compound: COc1ccc2[nH]cc(CCNC(C)=O)c2c1
normalised cell number: 0.86
//
Compound: Cc1cc(C)cc(OCC2CNC(=O)O2)c1 (stereo not given)
normalised cell number: 0.64
//
Compound: CO[C@@H]1[C@@H](OC(N)=O)[C@@H](O)[C@H](Oc2ccc3c(O)c(NC(=O)c4ccc(O)c(CC=C(C)C)c4)c(=O)oc3c2C)OC1(C)C
normalised cell number: 1.21
//
Compound: CN(C)CCOC(=O)COc1ccc(Cl)cc1
normalised cell number: 0.87
//
Compound: CN1CCN(C(c2ccccc2)c2ccccc2)CC1
normalised cell number: 1.54
//
Compound: CC(=O)OC(C)C[N+](C)(C)C (stereo not given)
normalised cell number: 1.13
//
Compound: COc1ccc(CC2c3cc(OC)c(OC)cc3CC[N+]2(C)CCC(=O)OCCCCCOC(=O)CC[N+]2(C)CCc3cc(OC)c(OC)cc3C2Cc2ccc(OC)c(OC)c2)cc1OC (stereo not given)
normalised cell number: 0.94
//
Compound: Nc1c(Br)cc(Br)cc1CNC1CCC(O)CC1 (stereo not given)
normalised cell number: 0.84
//
Compound: CC(N)C(=O)OC(C)(C)Cc1ccc(Cl)cc1 (stereo not given)
normalised cell number: 1.16
//
Compound: CCCCC1C(=O)N(c2ccccc2)N(c2ccccc2)C1=O
normalised cell number: 1.19
//
Compound: C#CCN(C)Cc1ccccc1
normalised cell number: 1.05
//
Compound: C1CCC(C(CC2CCCCN2)C2CCCCC2)CC1 (stereo not given)
normalised cell number: 1.11
//
Compound: O=C(CCBr)N1CCN(C(=O)CCBr)CC1
normalised cell number: 1.28
//
Compound: COc1ccc2c(c1)c(CC(=O)OCC(=O)O)c(C)n2C(=O)c1ccc(Cl)cc1
normalised cell number: 0.91

Origin of values: PubChem BioAssay
